tested.target: Gastrin/cholecystokinin type B receptor (Cavia porcellus)
method.summary: Inhibition of [3H]pCCK-8 binding to Guinea pig cortex membrane Cholecystokinin type B receptor
reported.metric: Ki

Summary for this compound, C[C@]1(Cc2c[nH]c3ccccc23)NC(=O)CCCCSSCC[C@@H](C(=O)N[C@@H](CC(=O)O)C(=O)N[C@@H](Cc2ccccc2)C(N)=O)NC1=O : Ki is 51 nM
